Test system: HCT116
test: cell viability (CellTiter-Glo) relative to plate median (fraction of plate median); higher = more viable cells
test_settings: 5 µM; treatment time 24 h; reporter: TCF4/Wnt
Hi! Just check whether cell viability is below 1. Below gives true, equal or above gives false.

Ask: Determine if CC1(C)C(=O)[C@@H]2O[C@@H]2[C@@]2(C)C1C[C@@H](O)[C@]1(C)C2CC[C@@]2(C)[C@H](c3ccoc3)OC(=O)C3OC321 (stereo partly drawn) [1,2alpha-EPOXYDEACETOXYDIHYDROGEDUNIN] shows cell viability strictly lower than 1.
Result: false

Ask: Determine if COC(=O)C(c1ccccc1)C1CCCCN1 (centres undefined) shows cell viability strictly lower than 1.
Result: false

Ask: Determine if O=C1CCCN1CC#CCN1CCCC1 shows cell viability strictly lower than 1.
Result: false

Ask: Determine if CNc1ccccc1C(=O)O shows cell viability strictly lower than 1.
Result: true

###

Test system: HCT116
test: cell viability (CellTiter-Glo) relative to plate median (fraction of plate median); higher = more viable cells
test_settings: 5 µM; treatment time 24 h; reporter: TCF4/Wnt
Record form. Attribute: cell viability. Fill in for each entry.
Please respond with just the number, no unit label.

Ask: Field request: cell viability | item: N#C/C(=C\c1cccc(O)c1)C(=O)O [alpha-CYANO-3-HYDROXYCINNAMIC ACID]
Result: 1.01

Ask: Field request: cell viability | item: CC(=O)Oc1ccc(/C=C/c2cc(OC(C)=O)cc(OC(C)=O)c2)cc1
Result: 1.02

Ask: Field request: cell viability | item: CCC12C=CCN3CC[C@@]4(c5ccc(OC)cc5N(C)[C@H]4[C@@](O)(C(=O)OC)[C@@H]1OC(C)=O)[C@@H]32 (some centres undefined)
Result: 0.953

Ask: Field request: cell viability | item: Cc1ccc(O)cc1.Cc1cccc(O)c1.Cc1ccccc1O
Result: 1.08

###

System: HCT116
test: cell viability (CellTiter-Glo) relative to plate median (fraction of plate median); higher = more viable cells
test_settings: 5 µM; treatment time 24 h; reporter: TCF4/Wnt
Hi! Just check whether cell viability is below 0.9. Below gives TRUE, equal or above gives FALSE.

Ask: Determine if COc1cc2c(cc1OC)[C@@H]1C(=O)c3ccc(OC)c(CC=C(C)C)c3O[C@@H]1CO2 shows cell viability strictly lower than 0.9.
Result: TRUE

Ask: Determine if C/C=C/[C@H]1O[C@@](O)([C@@H](C)[C@H](O)[C@H](C)[C@H]2OC(=O)/C(OC)=C/C(C)=C/[C@@H](C)[C@@H](O)[C@@H](C)[C@@H](O)[C@H](C)C/C(C)=C/C=C/[C@@H]2OC)C[C@@H](O[C@H]2C[C@@H](O)[C@H](OC(N)=O)[C@@H](C)O2)[C@@H]1C [Concanamycin B] shows cell viability strictly lower than 0.9.
Result: FALSE

Ask: Determine if CC1(C)C(=O)C=C[C@@]2(C)C1=C(O)C(=O)[C@]1(C)[C@@H]2CC[C@@]2(C)[C@H](c3ccoc3)C[C@H]3O[C@]321 shows cell viability strictly lower than 0.9.
Result: FALSE

Ask: Determine if C=C[C@H]1CN2CC[C@H]1C[C@H]2[C@H](O)c1ccnc2ccccc12 shows cell viability strictly lower than 0.9.
Result: FALSE

Ask: Determine if N=C(NCCC[C@H](N)C(=O)O)N[N+](=O)[O-] shows cell viability strictly lower than 0.9.
Result: FALSE

###

Tested on: SW480
test: TCF/Wnt firefly luciferase reporter signal relative to plate median (fraction of plate median); higher = higher Wnt reporter signal
test_settings: 5 µM; treatment time 24 h; reporter: 7TFP
Lab note: anything with TCF/Wnt firefly luciferase reporter signal at or over 0.9 counts as True; the rest go in False.

Ask: Would you say CNC1CC(N)C(O)C(OC2OC(CO)C(O)C3OC4(OC(C(N)CO)C(O)C(O)C4O)OC23)C1O (stereo not given) shows TCF/Wnt firefly luciferase reporter signal at minimum 0.9?
Result: True

Ask: Would you say CC1(C)C(=O)[C@@H]2O[C@@H]2[C@@]2(C)C1C[C@@H](O)[C@]1(C)C2CC[C@@]2(C)[C@H](c3ccoc3)OC(=O)C3OC321 (stereo partly drawn) [1,2alpha-EPOXYDEACETOXYDIHYDROGEDUNIN] shows TCF/Wnt firefly luciferase reporter signal at minimum 0.9?
Result: True

Ask: Would you say CC(C)=CCCC1(C)C=Cc2c(O)c3c(c(CC=C(C)C)c2O1)OC12C(CC4CC1C(C)(C)OC2(C/C=C(/C)C(=O)O)C4O)C3=O (stereo not given) shows TCF/Wnt firefly luciferase reporter signal at minimum 0.9?
Result: False

Ask: Would you say CC[C@@H](C)C(=O)O[C@H]1[C@H](O)[C@H]2[C@@H](CN3C[C@@H](C)CC[C@H]3[C@@]2(C)O)[C@@H]2C[C@]34O[C@]5(O)[C@@H](OC(=O)[C@](C)(O)[C@@H](C)O)CC[C@@]3(C)[C@@H]5[C@@H](OC(C)=O)[C@@H](OC(C)=O)[C@H]4[C@@]21O (stereo in doubt) shows TCF/Wnt firefly luciferase reporter signal at minimum 0.9?
Result: True

###

Test system: DLD1
test: TCF/Wnt firefly luciferase reporter signal relative to plate median (fraction of plate median); higher = higher Wnt reporter signal
test_settings: 5 µM; treatment time 24 h; reporter: 7TFP
Lab note: anything with TCF/Wnt firefly luciferase reporter signal at or over 1 counts as Y; the rest go in N.

Ask: Would you say COc1ccc2c(c1O)-c1c(OC)c(OC)cc3c1[C@H](C2)N(C)CC3 shows TCF/Wnt firefly luciferase reporter signal at minimum 1?
Result: N

Ask: Would you say CCOC(=O)C1C(C=C(C)C)C1(C)C (stereo not given) shows TCF/Wnt firefly luciferase reporter signal at minimum 1?
Result: N

Ask: Would you say CCCC(C)(COC(N)=O)COC(=O)NC(C)C (stereo not given) shows TCF/Wnt firefly luciferase reporter signal at minimum 1?
Result: N

Ask: Would you say CCC[C@H]1CCCCN1 shows TCF/Wnt firefly luciferase reporter signal at minimum 1?
Result: Y

Ask: Would you say O=c1ccc2c(O)c3ccoc3cc2o1 shows TCF/Wnt firefly luciferase reporter signal at minimum 1?
Result: N

Ask: Would you say CC(=O)O[C@@H]1C[C@@]2(C)[C@H](c3ccoc3)C[C@H]3O[C@]32[C@]2(C)C(=O)C(O)=C3C(C)(C)C(=O)C=C[C@]3(C)[C@@H]12 shows TCF/Wnt firefly luciferase reporter signal at minimum 1?
Result: N

Ask: Would you say CN1CCc2cc3c(cc2C1O)OCO3 (stereo not given) shows TCF/Wnt firefly luciferase reporter signal at minimum 1?
Result: N

Ask: Would you say C=C(C)[C@@H]1CC[C@]2(C(=O)O[C@@H]3O[C@H](CO[C@@H]4O[C@H](CO)[C@@H](O[C@@H]5O[C@@H](C)[C@H](O)[C@@H](O)[C@H]5O)[C@H](O)[C@H]4O)[C@@H](O)[C@H](O)[C@H]3O)CC[C@]3(C)[C@H](C[C@H]4OC(=O)C[C@@H](O)[C@]5(C)[C@@H]4[C@@]3(C)CC[C@H]5C(=C)C)[C@@H]12 [Chiisanoside (5)] shows TCF/Wnt firefly luciferase reporter signal at minimum 1?
Result: N

Ask: Would you say COc1ccc([C@H]2Oc3c(I)c(OC)cc(OC)c3C[C@@H]2O)cc1OC shows TCF/Wnt firefly luciferase reporter signal at minimum 1?
Result: N

Ask: Would you say COc1cc2c(cc1OC)[C@@H]1C(=O)c3ccc4c(c3O[C@@H]1CO2)CC(C(C)C)O4 (stereo not given in full) shows TCF/Wnt firefly luciferase reporter signal at minimum 1?
Result: N

Ask: Would you say COc1cc2c(c3oc4cccc(O)c4c(=O)c13)[C@@H]1C=CO[C@@H]1O2 [Sterigmatocystin] shows TCF/Wnt firefly luciferase reporter signal at minimum 1?
Result: N

Ask: Would you say COc1ccc(C(=O)O)cc1OC shows TCF/Wnt firefly luciferase reporter signal at minimum 1?
Result: N

Ask: Would you say CN[C@@H]1C[C@H]2O[C@@](C)([C@@H]1OC)n1c3ccccc3c3c4c(c5c6ccccc6n2c5c31)C(=O)NC4 [Staurosporine] shows TCF/Wnt firefly luciferase reporter signal at minimum 1?
Result: N

Ask: Would you say c1ccc2c(c1)[nH]c1cnccc12 shows TCF/Wnt firefly luciferase reporter signal at minimum 1?
Result: N

Ask: Would you say COc1cc(O)c2c(=O)oc3cc(O)cc(C)c3c2c1 [Alternariol-9-methylether] shows TCF/Wnt firefly luciferase reporter signal at minimum 1?
Result: N

Ask: Would you say C/C=C/c1ccc2c(c1)OCO2 shows TCF/Wnt firefly luciferase reporter signal at minimum 1?
Result: Y

Ask: Would you say COc1cc2ccc(=O)oc2c2ccoc12 shows TCF/Wnt firefly luciferase reporter signal at minimum 1?
Result: N

Ask: Would you say C[C@@H]1C[C@H](O)[C@@]2(O)[C@]13CC(=O)OC[C@@]2(C)[C@@](C)(O)C(=O)C3 shows TCF/Wnt firefly luciferase reporter signal at minimum 1?
Result: Y

Ask: Would you say C=CCSSCC=C shows TCF/Wnt firefly luciferase reporter signal at minimum 1?
Result: Y

Ask: Would you say C=C1[C@@H]2CCC3[C@@](CC[C@@H]4[C@H](C(=O)O)C[C@@H](O[C@@H]5O[C@H](CO)[C@@H](OS(=O)(=O)O)[C@H](OS(=O)(=O)O)[C@H]5OC(=O)CC(C)C)C[C@@]34C)(C2)[C@@H]1O (stereo not given in full) shows TCF/Wnt firefly luciferase reporter signal at minimum 1?
Result: Y

Ask: Would you say CN1CCc2cc3c(cc2[C@H]1[C@@H]1OC(=O)c2c1ccc1c2OCO1)OCO3 shows TCF/Wnt firefly luciferase reporter signal at minimum 1?
Result: N

Ask: Would you say O=C1C=CC(=O)c2ccccc21 shows TCF/Wnt firefly luciferase reporter signal at minimum 1?
Result: Y

Ask: Would you say COC(=O)C1=CCCN(C)C1 shows TCF/Wnt firefly luciferase reporter signal at minimum 1?
Result: Y

Ask: Would you say CC(C)c1ccc2c(c1O)CC[C@H]1C3=C(CC[C@]21C)C(=O)OC3 shows TCF/Wnt firefly luciferase reporter signal at minimum 1?
Result: Y

Ask: Would you say CC[C@@]1(O)C[C@H](O)c2c(cc3c(c2O)C(=O)c2c(O)ccc(O)c2C3=O)[C@H]1C(=O)OC shows TCF/Wnt firefly luciferase reporter signal at minimum 1?
Result: Y

Ask: Would you say Cc1cc(O)ccc1Cl shows TCF/Wnt firefly luciferase reporter signal at minimum 1?
Result: N

Ask: Would you say CCCCOC(=O)c1ccccc1C(=O)OCCCC shows TCF/Wnt firefly luciferase reporter signal at minimum 1?
Result: N
